Molecular target: hRORγt (Homo sapiens, UniProt P51449)
Construct: expressed in transfected cells; host or cells: CHO-S (Chinese hamster ovary cells, Invitrogen R80007), transiently transfected with pM-hRORγt and pG5-luc
Sequence (P51449 1-497 isoform P51449-2): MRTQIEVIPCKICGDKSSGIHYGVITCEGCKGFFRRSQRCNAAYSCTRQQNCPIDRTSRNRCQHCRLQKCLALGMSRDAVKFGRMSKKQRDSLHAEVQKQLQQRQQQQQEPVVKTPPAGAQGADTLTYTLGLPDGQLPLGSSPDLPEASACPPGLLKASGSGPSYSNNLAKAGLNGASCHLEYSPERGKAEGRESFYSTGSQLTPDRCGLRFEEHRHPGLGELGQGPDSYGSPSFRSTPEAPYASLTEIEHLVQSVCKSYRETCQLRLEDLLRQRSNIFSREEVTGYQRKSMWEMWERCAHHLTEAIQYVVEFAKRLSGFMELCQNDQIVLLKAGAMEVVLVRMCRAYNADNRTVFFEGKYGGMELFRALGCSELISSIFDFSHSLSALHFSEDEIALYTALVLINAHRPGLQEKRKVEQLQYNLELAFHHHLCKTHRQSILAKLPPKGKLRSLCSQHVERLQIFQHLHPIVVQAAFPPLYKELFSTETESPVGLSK
Experiment: Luciferase assay (reporter gene, recombinant plasmid hRORγt)
Type: cell-based
Conditions: CHO-S cells transfected with pM-hRORγt and pG5-luc; overnight culture with compound; ONE-Glo luciferase readout; read-out: RORgt EC50
Test readout: EC50

Query "CC[C@@H]1CCc2cc(C3CCC3)ccc2N1S(=O)(=O)c1ccc(OCC2CCOCC2)c(CO)c1" on hRORγt (Homo sapiens, UniProt P51449); EC50 returned: 5200 pM

Query CC(C)c1ccc2c(c1)CCC(C)N2S(=O)(=O)c1ccc(OCC2CCOCC2)c(CO)c1 (stereo not drawn) on hRORγt (Homo sapiens, UniProt P51449); EC50 returned: 14900 pM

Query "CC[C@@H]1CCc2cc(C(C)C)ccc2N1S(=O)(=O)c1ccc(OCC2CCOCC2)c(CO)c1" on hRORγt (Homo sapiens, UniProt P51449); EC50 returned: 48000 pM

Query "C[C@H]1CCc2cc(CC(F)(F)F)ccc2N1S(=O)(=O)c1ccc(OCC2CCOCC2)c(CO)c1" on hRORγt (Homo sapiens, UniProt P51449); EC50 returned: 316000 pM

Query CCc1ccc2c(c1)CCC(C)N2S(=O)(=O)c1ccc(OCC2CCOCC2)c(CO)c1 (stereo not drawn) on hRORγt (Homo sapiens, UniProt P51449); EC50 returned: 23600 pM

Query "CCc1ccc2c(c1)CC[C@H](CC)N2S(=O)(=O)c1ccc(OCC2CCOCC2)c(CO)c1" on hRORγt (Homo sapiens, UniProt P51449); EC50 returned: 34900 pM

Query CCc1ccc2c(c1)CCC(CC)N2S(=O)(=O)c1ccc(OCC2CCOCC2)c(CO)n1 (stereo not drawn) on hRORγt (Homo sapiens, UniProt P51449); EC50 returned: 212000 pM

Query "C[C@H]1CCc2cc(C(C)(F)F)ccc2N1S(=O)(=O)c1ccc(OCC2CCOCC2)c(CO)c1" on hRORγt (Homo sapiens, UniProt P51449); EC50 returned: 181000 pM

Query CCc1ccc2c(c1)CC(C)N2S(=O)(=O)c1ccc(OCC2CCOCC2)c(CO)c1 (stereo not drawn) on hRORγt (Homo sapiens, UniProt P51449); EC50 returned: 1.61e+06 pM

Query "CCc1ccc2c(c1)CCC(C)(C)N2S(=O)(=O)c1ccc(OCC2CCOCC2)c(CO)c1" on hRORγt (Homo sapiens, UniProt P51449); EC50 returned: 310000 pM

Query CCc1ccc2c(c1)CCC(CC)N2S(=O)(=O)c1ccc(OCC2CCOCC2)c(CO)c1 (stereo not drawn) on hRORγt (Homo sapiens, UniProt P51449); EC50 returned: 11000 pM

Query CC1CCc2cc(C#N)ccc2N1S(=O)(=O)c1ccc(OCC2CCOCC2)c(CO)c1 (stereo not drawn) on hRORγt (Homo sapiens, UniProt P51449); EC50 returned: 689000 pM

Query "C[C@H]1CCc2ccc(C(F)(F)F)cc2N1S(=O)(=O)c1ccc(OCC2CCOCC2)c(CO)c1" on hRORγt (Homo sapiens, UniProt P51449); EC50 returned: 330000 pM

Query "CCc1ccc2c(c1)CC[C@H](C)N2S(=O)(=O)c1ccc(OCC2CCOCC2)c(CO)c1" on hRORγt (Homo sapiens, UniProt P51449); EC50 returned: 25000 pM

Query CCc1ccc2c(c1)CCC(C1CC1)N2S(=O)(=O)c1ccc(OCC2CCOCC2)c(CO)c1 (stereo not drawn) on hRORγt (Homo sapiens, UniProt P51449); EC50 returned: 7000 pM

Query CCc1ccc2c(c1)CCC(C1CCC1)N2S(=O)(=O)c1ccc(OCC2CCOCC2)c(CO)c1 (stereo not drawn) on hRORγt (Homo sapiens, UniProt P51449); EC50 returned: 8100 pM

Query CCc1ccc2c(c1)C(C)CCN2S(=O)(=O)c1ccc(OCC2CCOCC2)c(CO)c1 (stereo not drawn) on hRORγt (Homo sapiens, UniProt P51449); EC50 returned: 655000 pM

Query "CCc1ccc2c(c1)CCN2S(=O)(=O)c1ccc(OCC2CCOCC2)c(CO)c1" on hRORγt (Homo sapiens, UniProt P51449); EC50 returned: 2.63e+06 pM

Query "CC[C@@H]1CCc2cc(C(F)(F)F)ccc2N1S(=O)(=O)c1ccc(OCC2CCOCC2)c(CO)c1" on hRORγt (Homo sapiens, UniProt P51449); EC50 returned: 5400 pM

Query CCc1ccc2c(c1)CCC(CC(C)C)N2S(=O)(=O)c1ccc(OCC2CCOCC2)c(CO)c1 (stereo not drawn) on hRORγt (Homo sapiens, UniProt P51449); EC50 returned: 21000 pM

Query CCc1ccc2c(c1)CCC(CC)N2S(=O)(=O)c1ccc(OCC2CCOCC2)c(S(C)(=O)=O)c1 (stereo not drawn) on hRORγt (Homo sapiens, UniProt P51449); EC50 returned: 1.86e+06 pM

Query CCc1ccc2c(c1)CCC(CC)N2S(=O)(=O)c1ccc(OCC2CCOCC2)c(S(N)(=O)=O)c1 (stereo not drawn) on hRORγt (Homo sapiens, UniProt P51449); EC50 returned: 576000 pM

Query "CC[C@H]1CCc2cc(C(F)(F)F)ccc2N1S(=O)(=O)c1ccc(OCC2CCOCC2)c(CO)c1" on hRORγt (Homo sapiens, UniProt P51449); EC50 returned: 71000 pM

Query CCC1CCc2cc(C3CCC3)ccc2N1S(=O)(=O)c1ccc(OCC2CCOCC2)c(CO)c1 (stereo not drawn) on hRORγt (Homo sapiens, UniProt P51449); EC50 returned: 5500 pM

Query CC(C)c1ccc2c(c1)CCC(C1CC1)N2S(=O)(=O)c1ccc(OCC2CCOCC2)c(CO)c1 (stereo not drawn) on hRORγt (Homo sapiens, UniProt P51449); EC50 returned: 6600 pM

Query [2H]C([2H])(O)c1cc(S(=O)(=O)N2c3ccc(C(C)C)cc3CCC2CC)ccc1OCC1CCOCC1 (stereo not drawn) on hRORγt (Homo sapiens, UniProt P51449); EC50 returned: 11500 pM

Query CCC1CCc2cc(C(C)(C)O)ccc2N1S(=O)(=O)c1ccc(OCC2CCOCC2)c(CO)c1 (stereo not drawn) on hRORγt (Homo sapiens, UniProt P51449); EC50 returned: 1.4e+06 pM

Cited source: patent US11396503B2
